Papp at 5 h, 200 µM reference
Assay: Permeability of compound at 200 uM incubated for 5 hrs by PAMPA assay
Type: ADME
Details: read-out: permeability
The answer is to be given in ×10⁻⁶ cm/s; state only the numeric part.

Returns the measured Papp at 5 h, 200 µM for the input compound. Input: CCC(Oc1cc(Cl)ccc1F)c1nc(N)nc(N2CCN(C)CC2)n1 (stereo not drawn)
30

I have this compound here, CCC(Oc1cc(F)ccc1F)c1nc(N)nc(N2CCN(C)CC2)n1 (stereo not drawn) , and I need its recorded Papp at 5 h, 200 µM.
20.6

Turning now to a further record.
Look at this compound and give its reported Papp at 5 h, 200 µM. CCC(Oc1cc(C(F)(F)F)ccc1F)c1nc(N)nc(N2CCN(C)CC2)n1 (stereo not drawn)
19
